- measured.on: Beta-3 adrenergic receptor (Homo sapiens, UniProt P13945)
- Sequence (P13945 whole entry): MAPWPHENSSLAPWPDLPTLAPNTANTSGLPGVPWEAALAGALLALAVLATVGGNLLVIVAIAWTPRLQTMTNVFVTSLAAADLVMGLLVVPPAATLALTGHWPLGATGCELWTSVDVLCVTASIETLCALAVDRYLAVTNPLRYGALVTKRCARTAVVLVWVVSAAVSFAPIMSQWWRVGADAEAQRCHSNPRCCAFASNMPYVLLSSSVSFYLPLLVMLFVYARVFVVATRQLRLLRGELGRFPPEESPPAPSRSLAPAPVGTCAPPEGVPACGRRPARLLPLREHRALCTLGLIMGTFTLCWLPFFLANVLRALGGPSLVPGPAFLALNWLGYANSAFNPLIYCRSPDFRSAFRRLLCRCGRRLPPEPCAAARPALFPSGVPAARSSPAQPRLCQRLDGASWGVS
- measurement.description: Binding affinity towards human Beta-3 adrenergic receptor
Property: pEC50; scope: individual compounds
Value format note: pEC50 is -log10 of concentration (mol/L); just state the number.

> print(dat)
                               query.smiles  observed.value
1  CC(C)(Cc1ccc(Oc2ccc(C(N)=O)cn2)cc1)NC[C@H](O)COc1cccc2[nH]c(=O)[nH]c12            7.52

Continue with the compound presented below.
pEC50 recorded for this compound, Cn1c(C(=O)O)cc2cc(OCCNC[C@H](O)c3ccc(N)nc3)ccc21 , is 6.52

###

- measured.on: UniProt:P13945
- measurement.description: Binding affinity towards Beta-3 adrenergic receptor
pEC50: −log10 of the molar value.
molecules and their reported pEC50

> print(dat)
                               query.smiles  readout  observed.value
1  CCCCCCP(=O)(O)COc1ccc(C[C@@H](C)NC[C@H](O)COc2ccc(O)c3c2CCC(=O)N3)cc1    pEC50          > 6.52

Note: attention shifts to another entry.
Quick note, pEC50 for C[C@H](Cc1ccc(OCP(=O)(O)c2ccccc2)cc1)NC[C@H](O)COc1ccc(O)c(NS(C)(=O)=O)c1 landed at > 6.52
